Biological target: human NaV1.6 (Homo sapiens)
Construct: HEK-293 cell lines stably expressing human NaV1.6 (NP_055006) were used; expressed in transfected cells
Sequence (Q9UQD0 whole entry): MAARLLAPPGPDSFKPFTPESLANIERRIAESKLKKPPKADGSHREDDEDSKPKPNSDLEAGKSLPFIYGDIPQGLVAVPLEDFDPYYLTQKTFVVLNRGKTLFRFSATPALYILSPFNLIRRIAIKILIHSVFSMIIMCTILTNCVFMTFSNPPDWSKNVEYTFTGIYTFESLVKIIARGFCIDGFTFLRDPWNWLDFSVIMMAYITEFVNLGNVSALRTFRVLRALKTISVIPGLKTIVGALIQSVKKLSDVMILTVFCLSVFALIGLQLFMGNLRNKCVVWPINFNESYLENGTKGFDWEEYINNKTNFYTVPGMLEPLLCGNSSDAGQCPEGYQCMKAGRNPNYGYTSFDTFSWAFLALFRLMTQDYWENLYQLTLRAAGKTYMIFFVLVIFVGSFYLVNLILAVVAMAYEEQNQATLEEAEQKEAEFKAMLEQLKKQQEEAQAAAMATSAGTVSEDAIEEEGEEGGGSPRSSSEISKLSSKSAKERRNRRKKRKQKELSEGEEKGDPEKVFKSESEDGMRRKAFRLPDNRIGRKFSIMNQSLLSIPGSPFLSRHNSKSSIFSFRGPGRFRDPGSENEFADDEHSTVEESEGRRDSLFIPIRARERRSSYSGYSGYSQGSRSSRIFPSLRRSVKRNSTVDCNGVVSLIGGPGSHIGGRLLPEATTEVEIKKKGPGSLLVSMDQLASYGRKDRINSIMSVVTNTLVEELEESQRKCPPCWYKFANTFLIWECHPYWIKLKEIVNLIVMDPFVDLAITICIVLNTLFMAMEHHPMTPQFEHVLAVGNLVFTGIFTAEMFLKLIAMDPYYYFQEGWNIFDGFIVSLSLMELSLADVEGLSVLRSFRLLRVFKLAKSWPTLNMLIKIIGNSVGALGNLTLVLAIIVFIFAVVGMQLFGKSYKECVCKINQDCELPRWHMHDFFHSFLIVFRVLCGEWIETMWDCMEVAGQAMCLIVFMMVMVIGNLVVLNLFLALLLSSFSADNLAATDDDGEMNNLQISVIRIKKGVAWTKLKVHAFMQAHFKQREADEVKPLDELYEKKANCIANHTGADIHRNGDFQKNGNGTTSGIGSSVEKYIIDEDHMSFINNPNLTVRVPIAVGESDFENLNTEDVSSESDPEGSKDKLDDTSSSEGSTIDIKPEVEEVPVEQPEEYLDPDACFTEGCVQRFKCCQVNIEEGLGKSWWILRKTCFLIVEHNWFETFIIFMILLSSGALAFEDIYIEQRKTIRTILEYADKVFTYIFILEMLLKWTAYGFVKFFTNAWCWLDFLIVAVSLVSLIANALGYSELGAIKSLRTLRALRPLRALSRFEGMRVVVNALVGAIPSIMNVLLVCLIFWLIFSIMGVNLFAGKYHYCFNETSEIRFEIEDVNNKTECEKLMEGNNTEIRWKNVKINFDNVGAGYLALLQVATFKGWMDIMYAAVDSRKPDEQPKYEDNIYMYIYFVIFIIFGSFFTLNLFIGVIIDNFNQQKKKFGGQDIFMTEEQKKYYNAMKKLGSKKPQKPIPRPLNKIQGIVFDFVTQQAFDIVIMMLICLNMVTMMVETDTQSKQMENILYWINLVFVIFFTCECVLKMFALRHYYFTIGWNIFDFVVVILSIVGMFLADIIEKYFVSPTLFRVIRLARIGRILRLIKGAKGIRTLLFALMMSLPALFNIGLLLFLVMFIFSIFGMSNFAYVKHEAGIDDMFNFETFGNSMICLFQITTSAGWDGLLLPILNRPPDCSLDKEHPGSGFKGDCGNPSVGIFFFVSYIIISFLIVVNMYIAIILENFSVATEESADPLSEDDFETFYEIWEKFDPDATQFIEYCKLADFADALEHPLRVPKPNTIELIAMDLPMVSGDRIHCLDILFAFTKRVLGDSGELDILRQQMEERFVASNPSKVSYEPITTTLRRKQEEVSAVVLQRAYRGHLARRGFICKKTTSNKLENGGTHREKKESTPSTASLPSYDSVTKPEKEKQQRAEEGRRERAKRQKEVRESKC
Assay: Peak INa tonic block (TB), automated patch clamp in HEK cells
Format: cell-based
Conditions: tonic block
measured.parameter: Peak INa TB Hill slope

Sample records with Peak INa TB Hill slope:
>>> test_value("Nc1nnc(-c2cccc(Cl)c2Cl)c(N)n1 [Lamotrigine, lamotrigine]")
"(0.8)"
>>> test_value("NC(=O)N1c2ccccc2C=Cc2ccccc21 [Carbamazepine, carbamazepine]")
"(1.0)"
>>> test_value("NC(=O)O[C@@H](Cn1ncnn1)c1ccccc1Cl [Cenobamate, cenobamate]")
"(1.1)"
>>> test_value("NC(=O)N1c2ccccc2CC(=O)c2ccccc21 [Oxcarbazepine, oxcarbazepine]")
"(1.7)"

--- query ---
## Task Reported Peak INa TB Hill slope for human NaV1.6 (Homo sapiens), given CCOC(F)(F)c1nnc2ccc(-c3cnc(OCC(F)(F)F)c(F)c3)cn12 [Compound 1] ?
## Result (1.0)
